B1: Gamma-crystallin S, residues 96 to 176; numbered along this chain, P22914 (parent)
chain: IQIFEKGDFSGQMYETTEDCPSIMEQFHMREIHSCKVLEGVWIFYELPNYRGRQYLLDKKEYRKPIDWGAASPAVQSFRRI

variants of: B1; test: abundance fitness (aPCA) (normalised: wild type 0, dead -1); higher = more abundant; growth selection in yeast, the domain comes from the species named; conditions: Homo sapiens
Assignment: determine reported abundance fitness for the given variants.
Answers are plain numbers.

>>> df
   mutant_designation  value_measured
0                 D8T           0.063
1                E46R          -0.137
2                Y50L          -0.351
3                Y62S          -0.129
4                L47S          -0.056
5                V75A          -0.021
6                 K6M           0.049

# next variant below
Supply reported abundance fitness belonging to this variant: N49M -0.001

Reference source: the Human Domainome abundance scans (Beltran et al. 2025)
